Source listed as paper PMC12118597.

Target system: SARS-CoV-2 NSP3 macrodomain (Mac1) (Severe acute respiratory syndrome coronavirus 2)
Assay type: binding
Settings: crystal soak concentration 20 mM, P43 crystals
Quantity kind: Modeling comment (PanDDA run, overall)

• O=C(O)C1CCCN1S(=O)(=O)c1cccc2nsnc12 (stereo not drawn) [AVI-2] = Duplicate, not modeled
• OCC(Cc1ccccc1)Nc1ncnc2[nH]ccc12 (stereo not drawn) [AVI-313] = Duplicate, not modeled

* * *

Target system: SARS-CoV-2 NSP3 macrodomain (Mac1) (Severe acute respiratory syndrome coronavirus 2, UniProt P0DTD1)
Type: binding
Settings: soak concentration 10 mM, DMSO background map
Quantity kind: PanDDA run, DMSO background map: Hit

- COc1ccc(NC(=O)NC2CCCC2)cc1-n1nnnc1C: TRUE
- CNc1ccc(NS(=O)(=O)c2cc3cccc(C)c3s2)cn1: TRUE
- Cc1cc2c(=O)n(CCN3C(=O)c4ccccc4S3(=O)=O)nnc2s1: TRUE
- Cc1sc2ncnc(Sc3ccccc3C(=O)O)c2c1C: TRUE
